target_or_system: NAD-dependent protein deacetylase sirtuin-3, mitochondrial (Homo sapiens)
Sequence (Q9NTG7 whole entry): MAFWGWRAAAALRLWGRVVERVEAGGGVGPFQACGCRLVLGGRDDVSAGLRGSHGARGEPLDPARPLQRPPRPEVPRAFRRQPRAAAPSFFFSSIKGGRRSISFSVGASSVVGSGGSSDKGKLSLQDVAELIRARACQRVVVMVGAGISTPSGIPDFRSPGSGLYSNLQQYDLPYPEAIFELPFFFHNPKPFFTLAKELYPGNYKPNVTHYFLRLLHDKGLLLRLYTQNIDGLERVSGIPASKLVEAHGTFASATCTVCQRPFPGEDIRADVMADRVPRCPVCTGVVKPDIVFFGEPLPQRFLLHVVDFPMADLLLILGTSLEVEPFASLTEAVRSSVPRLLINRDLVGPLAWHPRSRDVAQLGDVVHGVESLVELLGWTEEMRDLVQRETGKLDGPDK
experimental_details: Activation of SIRT3 (unknown origin)
pEC50: −log10 of the molar value.
readout_name: pEC50

CC(C)C[C@@H]1NC(=O)CCN2C(=O)CC3(CC(C)(C)C(=O)N3S(=O)(=O)c3cccc(c3)C(=O)OCCOC(=O)[C@H](Cc3ccccc3)NC1=O)C2=O (stereo partly specified) = 4.53

Data origin, for the record: ChEMBL document CHEMBL6078710
